// cross-study collection: IC50 for High affinity nerve growth factor receptor (Homo sapiens, UniProt P04629)

COc1cc2nccc(Oc3ccc(NC(=O)c4cn(C(C)C)c(=O)n(-c5ccc(C)cc5)c4=O)cc3F)c2c2c1OCCO2
500 to 5000 nM
COc1ccc(Nc2ccc(C(=O)c3c[nH]c4ncnc(NCc5ccc(C(F)(F)F)nc5)c34)c(F)n2)cn1
< 10 nM
CC1(C)COc2ncc(F)cc2[C@H]2CCON2c2ccn3ncc(c3n2)C(=O)N1
> 1000 nM
COCCN1C[C@@H](NC(=O)Nc2c(C)c(OC[C@@H](O)COC)nn2-c2ccccc2)[C@H](c2ccc(F)c(F)c2)C1
< 100 nM
COc1ccc(COc2ccc(Cn3c(N)nc4cc(N5CCN(C)CC5=O)ccc43)cc2OC)cn1
8980 nM

Prompt: I would be grateful if you could share the reported IC50 for COc1ccc(Nc2ccc(C(=O)c3c[nH]c4ncnc(NC5CCCCC5)c34)c(F)n2)cn1 .
Completion: < 10 nM

Prompt: Can you handle COCCN1C[C@@H](NC(=O)Nc2c(C)c(-c3cc(C)nc(C)c3)nn2-c2ccccc2)[C@H](c2ccc(F)c(F)c2)C1 next?
Completion: < 100 nM
